assay.info: Single-dose pharmacokinetics in cancer patients
Type: in vivo, human
measurement.setup: human, plasma; single oral dose 5 mg/person (n = 1)
reported.metric: Cmax (ng/mL)

1. COc1cc2c(Oc3ccc4[nH]c(C)cc4c3F)ccnc2cc1OCC1(N)CC1 :: 5.8

* * *

assay.info: Single-dose pharmacokinetics in cancer patients
Type: in vivo, human
measurement.setup: human, plasma; single oral dose 10 mg/person (n = 4)
reported.metric: AUC(0-inf) (ng·h/mL)

1. COc1cc2c(Oc3ccc4[nH]c(C)cc4c3F)ccnc2cc1OCC1(N)CC1 [anlotinib] :: 562

* * *

assay.info: Single-dose pharmacokinetics in cancer patients
Format: in vivo, human
measurement.setup: human, plasma; single oral dose 5 mg/person (n = 1); read-out: AUC0–120h
reported.metric: AUC(0-t)

1) COc1cc2c(Oc3ccc4[nH]c(C)cc4c3F)ccnc2cc1OCC1(N)CC1 :: 411 ng·h/mL
